The origin of these recorded values is patent US9951097B2.

experimental_target: E. coli UPPS (Escherichia coli)
Construct: His-tag (cleaved yes); made in house; host or cells: E. coli BL21 (DE3)
test: E. coli UPPS inhibition assay
Format: biochemical
Protocol: Methods. EcUPPS and SaUPPS were expressed and purified as described previously (Durrant et al., Chem Biol Drug Des 2011, 78(3):323-332). UPPS inhibition assays were carried out as described previously, and UPPS/inhibitor crystals were obtained via soaking as described previously (Guo et al., Proc Natl Acad Sci USA 2007, 104(24):10022-10027). Structure determinations and refinements were carried out as described below in Example 3. […]
measurement_type: IC50
Numeric answer plus unit only.

# compound, IC50
records = [
    ("CCCCCCCCCCCCOc1cccc(O)c1C(=O)O [Compound 11, (Dodecyloxy)-6-hydroxybenzoic acid]", "2200 nM"),
    ("CCCCCCCCOc1cccc(COc2ccc(Br)cc2P(=O)(O)O)c1", "920 nM"),
    ("CCCCCCCCCCOc1cccc(C(=O)Nc2ccc([N+](=O)[O-])cc2C(=O)O)c1", "3000 nM"),
]

Would you please give the reported IC50 of "O=C(Nc1cccc(C2=NCCN2)c1)c1ccc(C(=O)Nc2cccc(C3=NCCN3)c2)c([N+](=O)[O-])c1" with E. coli UPPS (Escherichia coli)?
4800 nM

----------
experimental_target: E. coli UPPS (Escherichia coli, UniProt P60472)
Construct: His-tag (cleaved yes); made in house; host or cells: E. coli BL21 (DE3)
Sequence (P60472 whole entry): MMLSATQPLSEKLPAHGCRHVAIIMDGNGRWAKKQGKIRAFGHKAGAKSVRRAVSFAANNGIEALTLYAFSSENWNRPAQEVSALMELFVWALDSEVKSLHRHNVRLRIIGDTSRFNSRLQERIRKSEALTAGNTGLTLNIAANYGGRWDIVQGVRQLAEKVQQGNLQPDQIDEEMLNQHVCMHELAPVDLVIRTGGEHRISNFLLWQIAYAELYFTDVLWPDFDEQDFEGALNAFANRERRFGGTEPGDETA
test: E. coli UPPS inhibition assay
Type: biochemical
run_parameters: read-out: E. coli UPPS IC50
measurement_type: IC50 (µM)
Numbers only, in µM.

# compound, measurement_type, observed
rows = [
    ("NCCc1cc(Br)cc(C#Cc2cccc(C#Cc3cc(Br)cc(CCN)c3)c2)c1 [Compound 18]", "IC50", 6.1),
]

Next compound, IC50 to be filled in.
Query IC50 for O=P(O)(O)C(O)(Cc1cccc(-c2cccc3c2oc2ccccc23)c1)P(=O)(O)O [Compound 5, reference compound]
0.28
